Ref: ChEMBL document CHEMBL4130461

For each of the compounds below, state its IC50.
Tested on: HL-60
Procedure summary: cells
Stated conditions: Homo sapiens
Description: Cytotoxicity in human HL60 cells by MTT assay
Write the number in µM without appending the unit.

Can you look up IC50 on HL-60 for "C/C=C/C(=O)OC[C@@H](C)[C@H]1CC[C@H]2C3=CC[C@H]4C[C@@H](OC(C)=O)CC[C@]4(C)[C@H]3CC[C@]12C" ? 10

Follow-up entry: "CC(=O)O[C@H]1CC[C@@]2(C)[C@@H](CC=C3[C@@H]2CC[C@]2(C)[C@@H]([C@H](C)C(=O)NO)CC[C@@H]32)C1" 18

Follow-up entry: "CCC(=O)N(C)C[C@@H](C)[C@H]1CC[C@H]2C3=CC[C@H]4C[C@@H](OC(C)=O)CC[C@]4(C)[C@H]3CC[C@]12C" 20

Follow-up entry: "CNC[C@@H](C)[C@H]1CC[C@H]2C3=CC[C@H]4C[C@@H](OC(C)=O)CC[C@]4(C)[C@H]3CC[C@]12C" 20

Follow-up entry: "CC(=O)O[C@H]1CC[C@@]2(C)[C@@H](CC=C3[C@@H]2CC[C@]2(C)[C@@H]([C@H](C)COC(=O)CN(C)C)CC[C@@H]32)C1" 21
